Origin of the recorded values: the supplement of paper PMC10724198

tested on: Saccharomyces cerevisiae; assay: protein stability index of tFT-peptide fusion (C-terminal peptide) (PSI (0-1 scale)); higher = more stable (slower turnover); details: genetic background: wild type; temperature: 30 C
The threshold is inclusive: protein stability index of exactly 0.7 counts as met; values below receive not met.

| chainSequence | answerLabel |
| --- | --- |
| RKRFSYTQTKNK [RSM19 C-terminal 12 aa] | not met |
| THFFSIEWAGFG [SEN34 C-terminal 12 aa] | met |
| YDANSWKQIKSC [PCL5 C-terminal 12 aa] | not met |
| SLFPSLETEDKK [MIH1 C-terminal 12 aa] | not met |
| HIFYFVLSYSEW [YIL030W-A C-terminal 12 aa] | not met |
| KSCDEDGQEDEA [TPA1 C-terminal 12 aa] | not met |

* * *

system: Saccharomyces cerevisiae; experiment: protein stability index of tFT-peptide fusion (C-terminal peptide) (PSI (0-1 scale)); higher = more stable (slower turnover); conditions: genetic background: wild type; temperature: 30 C
Overview of recorded protein stability index for various sequences

| chainSequence | protein stability index |
| --- | --- |
| WPLLLHLLHLLR | 0.697 |
| FPRRPHVESHIR | 0.736 |
| DETCVGSWNSCG | 0.712 |
| NSDEYKVYGEKL | 0.661 |
| KDFGYKKKNRRY | 0.734 |
| VGSLRAGYFLRL | 0.637 |
| RFPLLAPPRPLP | 0.732 |
| IPDATGYGWVRH | 0.691 |
| EQGLRRRVFFEV | 0.644 |
| FEDWMQGLGKWV | 0.792 |
| LLPALPPRCISF | 0.734 |
| KNTKKKNRKKKN | 0.742 |
| QDDTASMVVMIR | 0.697 |
| PHPPFLFPPPCP | 0.71 |
| ITRSEEAKWLCA | 0.685 |
| AGRGEIVINGKR | 0.615 |
| PPPPPLLTRPLP | 0.699 |
| PKHQPSLLPNHH | 0.615 |
| IPRCSPAGVSSY | 0.696 |

* * *

system: Saccharomyces cerevisiae; test: protein stability index of tFT-peptide fusion (C-terminal peptide) (PSI (0-1 scale)); higher = more stable (slower turnover); settings: genetic background: das1 deletion; temperature: 30 C

| chainSequence | protein stability index |
| --- | --- |
| KERIVLSNVRPM [TFC7 C-terminal 12 aa] | 0.691 |
| FTLVDYDKKFHK [ADH7 C-terminal 12 aa] | 0.702 |
| LEHYSLSTFVCC [YAL045C C-terminal 12 aa] | 0.326 |
| DERRQPVSNLRM [YDL163W C-terminal 12 aa] | 0.712 |
| IFVGETIFFFLF [YDR053W C-terminal 12 aa] | 0.625 |
| SESNDGESSDSD [RPA43 C-terminal 12 aa] | 0.656 |
| AKVYFLGRDSSI [NDE1 C-terminal 12 aa] | 0.708 |
| KETTTRNYRGTC [GAD1 C-terminal 12 aa] | 0.71 |
| YFNKTEFLLADN [MRPL17 C-terminal 12 aa] | 0.713 |
| TIAAGKISEITQ [HBS1 C-terminal 12 aa] | 0.729 |
| KKPSSYVMVPRP [MRPL8 C-terminal 12 aa] | 0.708 |
| NASEIYVKRKTG [DDL1 C-terminal 12 aa] | 0.708 |
